# experimental_system: T1, human ICOS, full-length, expressed on transfected Expi293 cells (human, UniProt Q9Y6W8 21-199)
# T1 construct: whole, on cells
# T1 sequence (looked up): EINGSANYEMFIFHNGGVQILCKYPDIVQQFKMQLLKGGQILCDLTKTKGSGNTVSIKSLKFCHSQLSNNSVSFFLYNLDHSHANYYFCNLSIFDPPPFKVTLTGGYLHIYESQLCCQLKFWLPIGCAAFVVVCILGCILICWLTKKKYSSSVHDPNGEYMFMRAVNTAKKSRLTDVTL
# procedure_text: flow cytometry, 100 nM, Expi293 cells with human ICOS
Property: MFI; scope: individual binders

binder: variant ICOSL IgV-Fc fusion N52R/N57L/Q100A (Fc fusion) DTQEKEVRAMVGSDVELSCACPEGSRFDLNDVYVYWQTSESKTVVTYHIPQRSSLELVDSRYRNRALMSPAGMLRGDFSLRLFNVTPQDEQKFHCLVLSASLGFQEVLSVEVTLHVAANFSVGSGGGGSEPKSSDKTHTCPPCPAPEAEGAPSVFLFPPKPKDTLMISRTPEVTCVVVDVSHEDPEVKFNWYVDGVEVHNAKTKPREEQYNSTYRVVSVLTVLHQDWLNGKEYKCKVSNKALPAPIEKTISKAKGQPREPQVYTLPPSREEMTKNQVSLTCLVKGFYPSDIAVEWESNGQPENNYKTTPPVLDSDGSFFLYSKLTVDKSRWQQGNVFSCSVMHEALHNHYTQKSLSLSPG
MFI: 308000 MFI
//
binder: variant ICOSL IgV-Fc fusion N52V/N57T/Q100L (Fc fusion) DTQEKEVRAMVGSDVELSCACPEGSRFDLNDVYVYWQTSESKTVVTYHIPQVSSLETVDSRYRNRALMSPAGMLRGDFSLRLFNVTPQDEQKFHCLVLSLSLGFQEVLSVEVTLHVAANFSVGSGGGGSEPKSSDKTHTCPPCPAPEAEGAPSVFLFPPKPKDTLMISRTPEVTCVVVDVSHEDPEVKFNWYVDGVEVHNAKTKPREEQYNSTYRVVSVLTVLHQDWLNGKEYKCKVSNKALPAPIEKTISKAKGQPREPQVYTLPPSREEMTKNQVSLTCLVKGFYPSDIAVEWESNGQPENNYKTTPPVLDSDGSFFLYSKLTVDKSRWQQGNVFSCSVMHEALHNHYTQKSLSLSPG
MFI: 29200 MFI
//
binder: variant ICOSL IgV-Fc fusion N52R/N57Y/Q100S (Fc fusion) DTQEKEVRAMVGSDVELSCACPEGSRFDLNDVYVYWQTSESKTVVTYHIPQRSSLEYVDSRYRNRALMSPAGMLRGDFSLRLFNVTPQDEQKFHCLVLSSSLGFQEVLSVEVTLHVAANFSVGSGGGGSEPKSSDKTHTCPPCPAPEAEGAPSVFLFPPKPKDTLMISRTPEVTCVVVDVSHEDPEVKFNWYVDGVEVHNAKTKPREEQYNSTYRVVSVLTVLHQDWLNGKEYKCKVSNKALPAPIEKTISKAKGQPREPQVYTLPPSREEMTKNQVSLTCLVKGFYPSDIAVEWESNGQPENNYKTTPPVLDSDGSFFLYSKLTVDKSRWQQGNVFSCSVMHEALHNHYTQKSLSLSPG
MFI: 229000 MFI
//
binder: variant ICOSL IgV-Fc fusion N52Q/N57F (Fc fusion) DTQEKEVRAMVGSDVELSCACPEGSRFDLNDVYVYWQTSESKTVVTYHIPQQSSLEFVDSRYRNRALMSPAGMLRGDFSLRLFNVTPQDEQKFHCLVLSQSLGFQEVLSVEVTLHVAANFSVGSGGGGSEPKSSDKTHTCPPCPAPEAEGAPSVFLFPPKPKDTLMISRTPEVTCVVVDVSHEDPEVKFNWYVDGVEVHNAKTKPREEQYNSTYRVVSVLTVLHQDWLNGKEYKCKVSNKALPAPIEKTISKAKGQPREPQVYTLPPSREEMTKNQVSLTCLVKGFYPSDIAVEWESNGQPENNYKTTPPVLDSDGSFFLYSKLTVDKSRWQQGNVFSCSVMHEALHNHYTQKSLSLSPG
MFI: 192000 MFI
